Biological target: α7-subtype of nicotinic receptors (Rattus norvegicus)
Sequence (Q05941 23-502): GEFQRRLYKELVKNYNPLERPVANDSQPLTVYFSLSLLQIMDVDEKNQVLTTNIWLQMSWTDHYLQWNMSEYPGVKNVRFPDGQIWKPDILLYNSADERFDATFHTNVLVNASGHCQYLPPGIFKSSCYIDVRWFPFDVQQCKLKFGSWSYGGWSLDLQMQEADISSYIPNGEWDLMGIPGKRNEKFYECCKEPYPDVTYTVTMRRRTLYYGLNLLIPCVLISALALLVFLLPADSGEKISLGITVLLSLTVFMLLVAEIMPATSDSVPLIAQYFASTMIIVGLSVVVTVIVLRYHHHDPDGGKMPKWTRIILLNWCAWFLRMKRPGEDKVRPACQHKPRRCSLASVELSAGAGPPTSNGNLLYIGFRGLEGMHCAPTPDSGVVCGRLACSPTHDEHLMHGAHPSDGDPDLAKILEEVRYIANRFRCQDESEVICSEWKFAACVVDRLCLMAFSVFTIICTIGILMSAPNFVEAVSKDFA
measured.property: IC50

stdin: Which IC50 is listed for O=C(Nc1cnc(N2CCN3CCC2CC3)nc1)Oc1ccccc1 ?
stdout: < 300 nM
